- Tested target: GlcNAc(b1-6)Gal(b1-4)GlcNAc
- Experimental protocol: glycan array binding signal (z-score within array); higher = stronger binding
- Settings: glycan notation: IUPAC condensed, linker removed
Many of the other results were omitted from the sample, so the strongest signals are more common in it than they were.
Reported endpoint: glycan array binding signal (z-score)

Binder	glycan array binding signal (z-score)
MPA (Maclura pomifera) (protein) GVTFDDGAYTGIREINFEYNSETAIGGLRVTYDLNGMPFVAEDHKSFITGFKPVKISLEFPSEYIVEVSGYVGKVEGYTVIRSLTFKTNKQTYGPYGVTNGTPFSLPIENGLIVGFKGSIGYWLDYFSIYLSLNGPNGKSQSIIVGPWGDRVTN	-0.229

Exercise: Look up glycan array binding signal (z-score) for this binder: HPA (Helix pomatia), Q2F1K8 (protein) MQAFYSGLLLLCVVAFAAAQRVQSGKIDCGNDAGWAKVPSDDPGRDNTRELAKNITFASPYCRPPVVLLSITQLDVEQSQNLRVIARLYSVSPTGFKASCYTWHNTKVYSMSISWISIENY
Solution: -0.35

Exercise: Look up glycan array binding signal (z-score) for this binder: TbCVNHOa (Tuber borchii), Q5MK11 (protein) GSHIGPYMSYADSSRNAVLTNGGRTLRAECRNADGNWVTSELDLDTCIGNPNGFLGWGMQNFSHSSEDIKLEEGGRKLTCRPKTVDGGFRERQGIDLNRIQNVNGRLVFQ
Solution: -0.247

Exercise: Look up glycan array binding signal (z-score) for this binder: PpFlo2 (Pichia pastoris) (protein) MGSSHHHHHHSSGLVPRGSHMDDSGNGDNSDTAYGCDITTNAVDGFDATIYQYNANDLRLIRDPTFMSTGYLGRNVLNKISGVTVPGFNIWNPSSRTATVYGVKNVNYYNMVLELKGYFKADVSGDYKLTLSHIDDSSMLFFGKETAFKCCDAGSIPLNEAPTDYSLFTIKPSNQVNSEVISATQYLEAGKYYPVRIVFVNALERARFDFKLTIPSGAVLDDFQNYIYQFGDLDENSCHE
Solution: 0.578

Exercise: Look up glycan array binding signal (z-score) for this binder: B936 (Bifidobacterium sp) (protein) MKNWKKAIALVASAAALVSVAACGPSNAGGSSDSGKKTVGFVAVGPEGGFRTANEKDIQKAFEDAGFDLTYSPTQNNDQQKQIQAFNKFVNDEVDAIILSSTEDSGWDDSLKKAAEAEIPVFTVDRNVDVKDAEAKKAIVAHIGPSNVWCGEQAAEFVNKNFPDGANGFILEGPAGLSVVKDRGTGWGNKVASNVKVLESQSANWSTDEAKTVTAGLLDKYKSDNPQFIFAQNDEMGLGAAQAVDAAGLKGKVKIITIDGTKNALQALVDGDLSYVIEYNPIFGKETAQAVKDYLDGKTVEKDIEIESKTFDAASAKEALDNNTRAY
Solution: -0.106
